Below are compounds with their IC50 as measured on Prolyl endopeptidase (Sus scrofa, UniProt P23687).
Sequence (P23687 whole entry): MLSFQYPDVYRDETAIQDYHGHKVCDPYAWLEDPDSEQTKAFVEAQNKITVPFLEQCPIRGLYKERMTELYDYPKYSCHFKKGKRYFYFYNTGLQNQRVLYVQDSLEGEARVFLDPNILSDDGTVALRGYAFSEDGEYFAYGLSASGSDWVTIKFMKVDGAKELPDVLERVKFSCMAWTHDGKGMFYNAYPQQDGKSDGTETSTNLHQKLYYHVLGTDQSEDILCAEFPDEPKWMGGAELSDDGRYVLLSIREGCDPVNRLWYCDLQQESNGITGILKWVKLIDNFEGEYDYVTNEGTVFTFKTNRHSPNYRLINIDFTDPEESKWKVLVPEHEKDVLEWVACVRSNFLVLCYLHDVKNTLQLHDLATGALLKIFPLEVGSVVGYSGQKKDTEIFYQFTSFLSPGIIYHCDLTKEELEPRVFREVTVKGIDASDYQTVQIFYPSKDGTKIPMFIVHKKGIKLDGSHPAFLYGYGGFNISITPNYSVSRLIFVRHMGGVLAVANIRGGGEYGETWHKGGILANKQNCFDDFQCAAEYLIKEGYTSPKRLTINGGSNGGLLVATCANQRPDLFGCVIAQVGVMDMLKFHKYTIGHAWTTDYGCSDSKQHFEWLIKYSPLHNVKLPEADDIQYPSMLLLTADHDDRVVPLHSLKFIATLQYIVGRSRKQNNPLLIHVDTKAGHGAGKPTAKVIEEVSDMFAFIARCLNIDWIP
// note: answer is a bare numeric in nM

[Q] Reported IC50 for `N#C[C@@H]1CCCN1C(=O)[C@@H]1CCCN1C(=O)c1ccccc1` : what is it?
[A] 3.1

[Q] Would you kindly repeat that for `CC(C)(CC(=O)N1CCCCCC1)CC(=O)N1CCC[C@H]1C(=O)N1CCC[C@H]1C#N` ?
[A] 0.39

[Q] Would you kindly repeat that for `O=C(N[C@@H](Cc1ccccc1)C(=O)N1CCCC1)c1cccc(C(=O)N[C@@H](Cc2ccccc2)C(=O)N2CCCC2)c1` ?
[A] 81

[Q] Would you kindly repeat that for `CC(=O)[C@@H]1CCCN1C(=O)c1cccc(C(=O)N2CCC[C@H]2C(=O)N2CCC[C@H]2C(=O)CO)c1` ?
[A] 1.2
